target: GRK7 (human); assay: KINOMEscan competition binding; settings: compound 10.0 µM
REPORTED_PROPERTY: kinase still bound, per cent of control (%)
One number for each entry, in %.

Sample records with kinase still bound, per cent of control:
CCN(CCO)CCCOc1ccc2c(Nc3cc(CC(=O)Nc4cccc(F)c4)[nH]n3)ncnc2c1 : 54
COc1cc2c(Nc3ccc(NC(=O)c4ccccc4)cc3)ncnc2cc1OCCCN1CCOCC1 : 71
CCN1CCN(Cc2ccc(NC(=O)c3ccc(C)c(/C=C/c4cnc5[nH]ccc5c4OC)c3)cc2C(F)(F)F)CC1 : 77
CCOc1cc(N2CCC(O)CC2)ccc1Nc1ncc2c(n1)N(C)c1ccccc1C(=O)N2C : 100
N#Cc1cc(-c2ccnc(Nc3ccc(-n4cnc(-c5cccnc5)n4)cc3)n2)cc(N2CCOCC2)c1 : 70

Now for a further compound.
Entry C=CC(=O)Nc1ccc(C(=O)c2sc(Nc3ccc(N4CCN(C)CC4)cc3OC)nc2N)cc1 , kinase still bound, per cent of control reported as 100

----------
target: CSNK1A1 (human); test: KINOMEscan competition binding; conditions: compound 10.0 µM
Give measured kinase still bound, per cent of control for each item. Keep answers brief.
Answers are plain numbers, in %.

# example entries with known answers
COc1cc2ncnc(Nc3cccc(Cl)c3)c2cc1OC : 35
COc1cc2c(Nc3ccc(NC(=O)c4ccccc4)cc3)ncnc2cc1OCCCN1CCOCC1 : 63
O=c1[nH]c2ccccc2n1C1CCN(Cc2ccc(-c3nc4cc5[nH]cnc5cc4nc3-c3ccccc3)cc2)CC1 : 50
CC1=C(C(=O)Nc2cc3cn[nH]c3cc2F)C(c2ccc(C(F)(F)F)cc2)CC(=O)N1 (stereo unspecified) : 86
CCN1CCN(Cc2ccc(NC(=O)c3ccc(C)c(/C=C/c4cnc5[nH]ccc5c4OC)c3)cc2C(F)(F)F)CC1 : 87
C=CC(=O)Nc1ccc(C(=O)c2sc(Nc3ccc(N4CCN(C)CC4)cc3OC)nc2N)cc1 : 73
N#Cc1cc(-c2ccnc(Nc3ccc(-n4cnc(-c5cccnc5)n4)cc3)n2)cc(N2CCOCC2)c1 : 60
CCN(CCO)CCCOc1ccc2c(Nc3cc(CC(=O)Nc4cccc(F)c4)[nH]n3)ncnc2c1 : 49
N#C/C(=C1/Nc2ccccc2S1)c1ccnc(NCCc2cccnc2)n1 : 9.8
CCCS(=O)(=O)Nc1ccc(F)c(C(=O)c2c[nH]c3ncc(Cl)cc23)c1F : 84

Let's switch to this compound now.
Sure, the documented kinase still bound, per cent of control for CNC(=O)Nc1ccc(-c2nc(N3CC4CCC(C3)O4)c3cnn(C4CCC5(CC4)OCCO5)c3n2)cc1 is 100

----------
Kindly state kinase still bound, per cent of control for each of the entries shown.
biological target: IRAK1 (human) (UniProt P51617); assay: KINOMEscan competition binding; conditions: compound 10.0 µM
Sequence (P51617 whole entry, looked up): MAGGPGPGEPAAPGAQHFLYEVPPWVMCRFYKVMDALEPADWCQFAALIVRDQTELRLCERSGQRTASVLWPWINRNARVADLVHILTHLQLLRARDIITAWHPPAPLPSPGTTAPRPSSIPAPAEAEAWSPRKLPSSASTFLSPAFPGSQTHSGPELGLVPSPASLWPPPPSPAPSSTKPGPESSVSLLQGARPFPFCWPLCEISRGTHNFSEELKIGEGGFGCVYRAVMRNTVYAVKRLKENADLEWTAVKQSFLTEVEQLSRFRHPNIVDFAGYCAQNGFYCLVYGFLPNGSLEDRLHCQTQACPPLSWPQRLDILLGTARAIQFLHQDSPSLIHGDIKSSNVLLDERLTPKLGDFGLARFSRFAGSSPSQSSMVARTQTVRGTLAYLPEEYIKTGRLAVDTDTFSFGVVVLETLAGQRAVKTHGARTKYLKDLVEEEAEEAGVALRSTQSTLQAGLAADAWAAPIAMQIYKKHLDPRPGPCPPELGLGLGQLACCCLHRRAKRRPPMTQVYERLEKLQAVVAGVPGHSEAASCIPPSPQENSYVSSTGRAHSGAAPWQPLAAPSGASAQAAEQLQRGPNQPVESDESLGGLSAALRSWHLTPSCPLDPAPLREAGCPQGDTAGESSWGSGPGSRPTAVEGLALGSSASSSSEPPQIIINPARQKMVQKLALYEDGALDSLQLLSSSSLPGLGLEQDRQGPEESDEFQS
Output should be the measured figure followed by the unit it is expressed in.

CCN1CCN(Cc2ccc(NC(=O)c3ccc(C)c(/C=C/c4cnc5[nH]ccc5c4OC)c3)cc2C(F)(F)F)CC1 : 26%
CCc1nc(-c2cccc(C)c2)c(-c2ccnc(NC(=O)c3ccccc3)c2)s1 : 99%
C=CC(=O)Nc1ccc(C(=O)c2sc(Nc3ccc(N4CCN(C)CC4)cc3OC)nc2N)cc1 : 41%
N#C/C(=C1/Nc2ccccc2S1)c1ccnc(NCCc2cccnc2)n1 : 6.2%

# batch: return kinase still bound, per cent of control for each of the 2 molecules below
1. N#Cc1cc(-c2ccnc(Nc3ccc(-n4cnc(-c5cccnc5)n4)cc3)n2)cc(N2CCOCC2)c1
2. O=c1[nH]c2ccccc2n1C1CCN(Cc2ccc(-c3nc4cc5[nH]cnc5cc4nc3-c3ccccc3)cc2)CC1

A)
1. 9.3%
2. 76%

----------
molecular target: TSSK1B (human); assay: KINOMEscan competition binding; conditions: compound 10.0 µM
REPORTED_PROPERTY: kinase still bound, per cent of control (%)
Numbers only, in %.

Cc1cn(-c2cc(C(=O)Nc3ccc(C)c(NC(=O)c4ccno4)c3)cc(C(F)(F)F)c2)cn1 : 100
CCN(CCO)CCCOc1ccc2c(Nc3cc(CC(=O)Nc4cccc(F)c4)[nH]n3)ncnc2c1 : 87
CCc1nc(-c2cccc(C)c2)c(-c2ccnc(NC(=O)c3ccccc3)c2)s1 : 87
C=CC(=O)Nc1ccc(C(=O)c2sc(Nc3ccc(N4CCN(C)CC4)cc3OC)nc2N)cc1 : 44
N#Cc1cc(-c2ccnc(Nc3ccc(-n4cnc(-c5cccnc5)n4)cc3)n2)cc(N2CCOCC2)c1 : 100

Hi, could you look up kinase still bound, per cent of control for each item in my list?
1. CNC(=O)Nc1ccc(-c2nc(N3CC4CCC(C3)O4)c3cnn(C4CCC5(CC4)OCCO5)c3n2)cc1
2. CCN1CCN(Cc2ccc(NC(=O)c3ccc(C)c(/C=C/c4cnc5[nH]ccc5c4OC)c3)cc2C(F)(F)F)CC1

A)
[100, 100]

----------
test system: BMX (human), P51813 [V600E]; assay: KINOMEscan competition binding; conditions: compound 10.0 µM
Sequence (P51813 whole entry, looked up, stated change not applied): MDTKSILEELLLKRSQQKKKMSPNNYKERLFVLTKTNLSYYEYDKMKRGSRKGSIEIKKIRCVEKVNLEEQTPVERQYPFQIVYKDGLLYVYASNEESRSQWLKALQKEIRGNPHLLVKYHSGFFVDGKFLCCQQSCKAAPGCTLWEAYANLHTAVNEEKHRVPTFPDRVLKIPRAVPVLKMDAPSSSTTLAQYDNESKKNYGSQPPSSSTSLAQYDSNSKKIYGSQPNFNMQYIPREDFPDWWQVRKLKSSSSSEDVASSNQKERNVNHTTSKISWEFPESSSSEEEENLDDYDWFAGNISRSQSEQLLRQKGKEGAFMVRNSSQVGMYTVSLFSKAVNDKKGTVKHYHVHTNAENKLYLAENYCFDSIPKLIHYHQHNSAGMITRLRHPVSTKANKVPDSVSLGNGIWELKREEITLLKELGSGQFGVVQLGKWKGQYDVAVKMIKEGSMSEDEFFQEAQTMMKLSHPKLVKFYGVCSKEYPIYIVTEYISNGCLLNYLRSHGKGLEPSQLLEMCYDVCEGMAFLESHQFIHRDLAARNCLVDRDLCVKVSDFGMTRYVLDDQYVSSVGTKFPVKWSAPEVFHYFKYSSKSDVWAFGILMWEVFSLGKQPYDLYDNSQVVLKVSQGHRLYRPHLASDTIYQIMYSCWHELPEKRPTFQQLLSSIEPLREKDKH
REPORTED_PROPERTY: kinase still bound, per cent of control (%)
One number for each entry, in %.

Illustrative cases are given below, each with its answer.
CC[C@@H]1C(=O)N(C)c2cnc(Nc3ccc(C(=O)NC4CCN(C)CC4)cc3OC)nc2N1C1CCCC1 : 100
C=CC(=O)Nc1ccc(CN(C(=O)Nc2c(Cl)c(OC)cc(OC)c2Cl)c2cc(Nc3ccc(N4CCN(C)CC4)cc3)ncn2)cc1 : 100
O=c1cc(N2CCOCC2)oc2c(-c3cccc4c3sc3ccccc34)cccc12 : 95
Cc1n[nH]c2ccc(-c3cncc(OC[C@@H](N)Cc4c[nH]c5ccccc45)c3)cc12 : 100
O=C(NC1CC1)c1cccc(-c2ccc3c(NC(=O)C4CC4)n[nH]c3c2)c1 : 65
CCOc1cc(N2CCC(O)CC2)ccc1Nc1ncc2c(n1)N(C)c1ccccc1C(=O)N2C : 100

Could you tell me kinase still bound, per cent of control for each of these molecules? They are listed below.
1. N#Cc1cc(-c2ccnc(Nc3ccc(-n4cnc(-c5cccnc5)n4)cc3)n2)cc(N2CCOCC2)c1
2. NC(=O)Nc1cc(-c2cccc(F)c2)sc1C(=O)N[C@@H]1CCCNC1

A)
[72, 89]

----------
target: EPHB2 (human) (UniProt P29323); test: KINOMEscan competition binding; settings: compound 10.0 µM
Sequence (P29323 whole entry, looked up): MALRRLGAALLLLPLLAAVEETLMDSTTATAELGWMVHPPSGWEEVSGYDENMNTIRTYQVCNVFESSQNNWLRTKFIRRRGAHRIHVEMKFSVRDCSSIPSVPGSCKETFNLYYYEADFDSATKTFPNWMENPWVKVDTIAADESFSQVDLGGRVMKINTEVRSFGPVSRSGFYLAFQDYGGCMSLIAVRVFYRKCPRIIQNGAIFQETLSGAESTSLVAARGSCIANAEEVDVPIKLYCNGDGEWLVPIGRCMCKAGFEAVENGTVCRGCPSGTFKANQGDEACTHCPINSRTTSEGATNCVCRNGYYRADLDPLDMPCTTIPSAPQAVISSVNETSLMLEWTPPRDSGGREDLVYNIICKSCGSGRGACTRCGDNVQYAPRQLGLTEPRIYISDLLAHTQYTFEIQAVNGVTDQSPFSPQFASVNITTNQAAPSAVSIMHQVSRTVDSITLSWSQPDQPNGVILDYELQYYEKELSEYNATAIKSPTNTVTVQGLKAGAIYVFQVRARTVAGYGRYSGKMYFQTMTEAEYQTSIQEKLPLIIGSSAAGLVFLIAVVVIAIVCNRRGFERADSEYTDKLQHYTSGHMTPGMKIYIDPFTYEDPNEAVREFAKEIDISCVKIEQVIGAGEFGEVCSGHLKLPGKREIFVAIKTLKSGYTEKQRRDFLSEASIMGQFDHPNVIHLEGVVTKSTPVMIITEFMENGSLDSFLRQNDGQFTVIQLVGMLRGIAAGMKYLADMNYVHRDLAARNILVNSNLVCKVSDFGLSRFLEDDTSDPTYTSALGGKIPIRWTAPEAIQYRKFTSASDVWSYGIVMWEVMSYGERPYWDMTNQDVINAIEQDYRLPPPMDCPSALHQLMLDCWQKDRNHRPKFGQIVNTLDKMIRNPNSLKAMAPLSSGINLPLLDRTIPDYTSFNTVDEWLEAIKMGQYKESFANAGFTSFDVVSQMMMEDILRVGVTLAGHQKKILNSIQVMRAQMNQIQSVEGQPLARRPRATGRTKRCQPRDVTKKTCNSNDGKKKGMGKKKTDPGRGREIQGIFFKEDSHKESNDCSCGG
Provide the reported kinase still bound, per cent of control of each item.
Give the figure together with its unit, number first.

Use the examples below as a reference point.
Cc1cn(-c2cc(C(=O)Nc3ccc(C)c(NC(=O)c4ccno4)c3)cc(C(F)(F)F)c2)cn1 : 9%
C=CC(=O)Nc1ccc(C(=O)c2sc(Nc3ccc(N4CCN(C)CC4)cc3OC)nc2N)cc1 : 100%
CCCS(=O)(=O)Nc1ccc(F)c(C(=O)c2c[nH]c3ncc(Cl)cc23)c1F : 100%
CCN(CCO)CCCOc1ccc2c(Nc3cc(CC(=O)Nc4cccc(F)c4)[nH]n3)ncnc2c1 : 93%
COc1cc(C)c(Sc2cnc(NC(=O)c3ccc(CNC(C)C(C)C)cc3)s2)cc1C(=O)N1CCN(C(C)=O)CC1 (configuration not stated) : 100%

Hey, can you go through the list below and give me kinase still bound, per cent of control for every item?
1. COc1ccc(N(C(=O)Oc2cc(C(=O)Nc3cccc(C(F)(F)F)c3)ccc2C)c2ccnc(Nc3ccc(N4CCN(C)CC4)cc3)n2)c(OC)c1
2. COc1cc2c(Nc3ccc(NC(=O)c4ccccc4)cc3)ncnc2cc1OCCCN1CCOCC1
3. O=c1[nH]c2ccccc2n1C1CCN(Cc2ccc(-c3nc4cc5[nH]cnc5cc4nc3-c3ccccc3)cc2)CC1
4. CCOc1cc(N2CCC(O)CC2)ccc1Nc1ncc2c(n1)N(C)c1ccccc1C(=O)N2C
5. CC1=C(C(=O)Nc2cc3cn[nH]c3cc2F)C(c2ccc(C(F)(F)F)cc2)CC(=O)N1 (configuration not stated)
6. CCN1CCN(Cc2ccc(NC(=O)c3ccc(C)c(/C=C/c4cnc5[nH]ccc5c4OC)c3)cc2C(F)(F)F)CC1

A)
["0.9%", "100%", "72%", "100%", "100%", "0%"]

----------
biological target: MAP3K11 (human) (UniProt Q16584); assay: KINOMEscan competition binding; details: compound 10.0 µM
Sequence (Q16584 whole entry, looked up): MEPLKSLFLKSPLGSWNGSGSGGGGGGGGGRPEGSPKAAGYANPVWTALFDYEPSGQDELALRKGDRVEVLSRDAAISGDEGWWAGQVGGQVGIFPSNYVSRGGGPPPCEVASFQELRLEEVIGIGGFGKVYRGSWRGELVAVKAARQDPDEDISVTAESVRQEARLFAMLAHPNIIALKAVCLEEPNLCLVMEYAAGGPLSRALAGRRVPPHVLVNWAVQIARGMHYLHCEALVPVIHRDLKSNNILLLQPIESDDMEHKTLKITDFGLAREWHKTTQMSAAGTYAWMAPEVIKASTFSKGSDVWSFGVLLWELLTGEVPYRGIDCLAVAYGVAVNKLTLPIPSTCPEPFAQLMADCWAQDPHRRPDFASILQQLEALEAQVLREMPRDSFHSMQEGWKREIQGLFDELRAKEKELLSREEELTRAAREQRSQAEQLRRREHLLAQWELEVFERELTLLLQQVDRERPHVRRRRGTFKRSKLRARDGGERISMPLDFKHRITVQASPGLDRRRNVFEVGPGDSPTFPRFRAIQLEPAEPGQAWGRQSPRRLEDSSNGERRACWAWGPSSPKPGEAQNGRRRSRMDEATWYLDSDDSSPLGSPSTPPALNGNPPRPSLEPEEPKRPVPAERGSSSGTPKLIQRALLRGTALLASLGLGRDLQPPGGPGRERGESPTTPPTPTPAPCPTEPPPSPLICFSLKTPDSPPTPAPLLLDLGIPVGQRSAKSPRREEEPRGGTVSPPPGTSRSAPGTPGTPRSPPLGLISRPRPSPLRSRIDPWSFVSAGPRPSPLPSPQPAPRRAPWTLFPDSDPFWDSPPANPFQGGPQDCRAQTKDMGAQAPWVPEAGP
Answer each item with its documented kinase still bound, per cent of control.
One number for each entry, in %.

Answer for every listed entry: what is its kinase still bound, per cent of control? The entries follow.
1. COc1ccc(N(C(=O)Oc2cc(C(=O)Nc3cccc(C(F)(F)F)c3)ccc2C)c2ccnc(Nc3ccc(N4CCN(C)CC4)cc3)n2)c(OC)c1
2. Cc1cn(-c2cc(C(=O)Nc3ccc(C)c(NC(=O)c4ccno4)c3)cc(C(F)(F)F)c2)cn1
3. C=CC(=O)Nc1ccc(C(=O)c2sc(Nc3ccc(N4CCN(C)CC4)cc3OC)nc2N)cc1
4. COc1cc(C)c(Sc2cnc(NC(=O)c3ccc(CNC(C)C(C)C)cc3)s2)cc1C(=O)N1CCN(C(C)=O)CC1 (configuration not stated)

A)
[100, 100, 100, 100]
